assayInfo: recombinant UMI read abundance after kanamycin selection (control-corrected) (log10(CPM+1)); higher = more efficient recombination; extreme values may be limits of the assay; sequences stand for … in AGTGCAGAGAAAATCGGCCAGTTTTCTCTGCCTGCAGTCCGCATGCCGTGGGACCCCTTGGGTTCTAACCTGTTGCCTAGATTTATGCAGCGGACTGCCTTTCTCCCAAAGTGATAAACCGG…AGGTTGGTTTCACT; site = the 11-nt donor;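 also: IS621 bridge recombinase in Escherichia coli cells against a fixed T5 target plasmid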
Overview of reported recombinant UMI read abundance (log10) across a group of sequences:
quantityMeasured: recombinant UMI read abundance (log10)

| sequenceEntry | numericResult |
| --- | --- |
| CAATGATCATGGACCGGTTTTCCCGGTAATCCGTATTTGCT (site CGATCATCTAG) | 0 |
| GCCGCTTCATGGACCGGTTTTCCCGGTAATCCGTATTTGGA (site GCCGCTTCTTC) | 1.23 |
| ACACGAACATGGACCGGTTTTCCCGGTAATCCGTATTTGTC (site ACACGAACTAA) | 1.83 |
| ATTAGTGCATGGACCGGTTTTCCCGGTAATCCGTATTTGGT (site ACTAGTGCTAC) | 0.675 |
| CGATTTTCATGGACCGGTTTTCCCGGTAATCCGTATTTGCT (site CGATTTTCTAG) | 1.29 |
| ACAGTCTCATGGACCGGTTTTCCCGGTAATCCGTATTTGCA (site ACAGTGTCTTG) | 2.28 |
| GTGGTTCCATGGACCGGTTTTCCCGGTAATCCGTATTTGGT (site GTAGTTCCTAC) | 0.553 |
| ACGAAAACATGGACCGGTTTTCCCGGTAATCCGTATTTGTT (site ACGAAAACTAA) | 1.37 |
| CAAGTTACATGGACCGGTTTTCCCGGTAATCCGTATTTGGG (site CAAGTAACTCC) | 0.277 |
| CTTGCGGCATGGACCGGTTTTCCCGGTAATCCGTATTTGCT (site CTTGCGGCTAG) | 0.82 |
| CTATAATCATGGACCGGTTTTCCCGGTAATCCGTATTTGCT (site CTATAATCTAG) | 3.13 |
| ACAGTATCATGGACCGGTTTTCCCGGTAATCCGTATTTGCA (site ACACTATCTTA) | 0 |
| TATCTAGCATGGACCGGTTTTCCCGGTAATCCGTATTTGAA (site TACCTAGCTTT) | 0.131 |
| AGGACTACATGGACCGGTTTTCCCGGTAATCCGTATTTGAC (site AGGTCTACTGT) | 1.2 |
| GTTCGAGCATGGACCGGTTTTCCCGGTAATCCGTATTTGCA (site GTTCGAACTTG) | 0.806 |
| CTCTCCACATGGACCGGTTTTCCCGGTAATCCGTATTTGCT (site CTCTGCACTAG) | 0 |
| TGCTAGGCATGGACCGGTTTTCCCGGTAATCCGTATTTGTT (site TGCTAGGCTAC) | 0.00683 |
| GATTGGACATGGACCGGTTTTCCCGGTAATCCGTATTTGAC (site GATTGAACTGT) | 0 |
